Data provenance is PubChem BioAssay AID624417.

- Measured on: Glucagon-like peptide 1 receptor (Homo sapiens) (UniProt P43220)
- Sequence (P43220 whole entry, looked up): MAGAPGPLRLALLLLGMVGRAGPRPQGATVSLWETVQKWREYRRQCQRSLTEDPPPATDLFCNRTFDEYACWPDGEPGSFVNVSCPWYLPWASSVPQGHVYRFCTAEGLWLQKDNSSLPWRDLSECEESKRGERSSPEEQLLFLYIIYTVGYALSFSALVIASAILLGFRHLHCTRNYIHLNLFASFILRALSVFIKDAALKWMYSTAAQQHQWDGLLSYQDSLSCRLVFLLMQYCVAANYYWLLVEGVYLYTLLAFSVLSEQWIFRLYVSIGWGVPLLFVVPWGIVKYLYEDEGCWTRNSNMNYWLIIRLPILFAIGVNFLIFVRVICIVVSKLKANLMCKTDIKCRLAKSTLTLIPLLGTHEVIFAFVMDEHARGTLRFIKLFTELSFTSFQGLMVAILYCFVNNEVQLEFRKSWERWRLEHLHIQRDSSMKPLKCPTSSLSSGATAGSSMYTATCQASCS
- Assay: qHTS of GLP-1 Receptor Inverse Agonists (Inhibition Mode); further: nearly all actives have a fitted effect of over 55% in size
- Condition summary: HEK293 GLP-1R CRE-luciferase, luminescence, 24 h, GLP-1R form is constitutively active; series mostly up to 38.3 µM
About 6,400 (1.6%) of roughly 410,000 compounds were called active. Roughly 20% stayed inconclusive and do not appear here. The call rests on the fitted dose curve; in most records, active means well fitted inhibition curve with a large enough effect; inconclusive means small, poorly fitted or top-dose-only effect; inactive means no such curve, though single readings can be large or run the other way. The full list was thinned out, with actives kept by preference.
Respond using exactly one of the listed classes: YES = active, NO = inactive

Incoming: Tell me the recorded outcome of this test for Cc1ccc(CN(CC(=O)NC2CCCCC2)C(=O)c2csnn2)cc1 .
Outgoing: NO

Incoming: Tell me the recorded outcome of this test for COc1ccc(/C=C/C(=O)Nc2ccc(C34CC5CC(CC(O)(C5)C3)C4)cc2)cc1OC .
Outgoing: NO

Incoming: Tell me the recorded outcome of this test for NC(=S)N/N=C/c1coc2cc(Cl)ccc2c1=O .
Outgoing: NO

Incoming: Tell me the recorded outcome of this test for CC1=C(C(=O)N(C)C)CC(CC(=O)NCCc2ccccn2)C(=O)N1CCC1=CCCCC1 (centres undefined) .
Outgoing: NO

Incoming: Tell me the recorded outcome of this test for CCCC(=O)N1CCC1(C)C(=O)NCc1ccc(SC)cc1 (centres undefined) .
Outgoing: NO

Incoming: Tell me the recorded outcome of this test for CSc1ccc(/C=C/C(=O)NC23CC4CC(CC(C4)C2)C3)cc1 .
Outgoing: YES

Incoming: Tell me the recorded outcome of this test for CSc1ccc(CNC(=O)C2(C)CCCN2C)cc1 (centres undefined) .
Outgoing: NO

Incoming: Tell me the recorded outcome of this test for CCOc1ccc(OCC)c(NC(=O)CN(C)S(=O)(=O)c2cccc3nsnc23)c1 .
Outgoing: YES

Incoming: Tell me the recorded outcome of this test for COc1ccc(NC(=O)CCN2CCN(CCO)CC2)cc1 .
Outgoing: NO

Incoming: Tell me the recorded outcome of this test for O=C(COC(=O)c1cccc(Cl)c1Cl)NC1CCCCCC1 .
Outgoing: NO

Incoming: Tell me the recorded outcome of this test for CCOc1ccccc1NC(=O)CCS(=O)(=O)c1cccc2nsnc12 .
Outgoing: NO

Incoming: Tell me the recorded outcome of this test for Oc1ccccc1N1CCN(C(=S)NCc2ccccc2)CC1 .
Outgoing: YES

Incoming: Tell me the recorded outcome of this test for O=C(O)c1ccccc1Cc1ccc(F)c2ccccc12 .
Outgoing: NO

Incoming: Tell me the recorded outcome of this test for COc1ccc(CNS(=O)(=O)c2ccc(-c3cnc(C4CC4)o3)cc2)cc1 .
Outgoing: NO

Incoming: Tell me the recorded outcome of this test for COc1ccccc1Cc1c(-c2ccc(Cl)cc2)nc2c3ccccc3ccn12 .
Outgoing: NO

Incoming: Tell me the recorded outcome of this test for COc1cccc(CNc2nc(C(F)(F)F)nc3ccccc23)c1 .
Outgoing: YES

Incoming: Tell me the recorded outcome of this test for COc1cccc(CNC(=O)c2n[nH]c3ccccc23)c1 .
Outgoing: NO

Incoming: Tell me the recorded outcome of this test for OC[C@@H]1CN(Cc2cccs2)C[C@H](n2cnc3c(Nc4ccccc4)ncnc32)O1 .
Outgoing: NO

Incoming: Tell me the recorded outcome of this test for O=C(O)C1=C(C(=O)O)C2CCC1C2 .
Outgoing: NO

----------
- Measured on: Glucagon-like peptide 1 receptor (Homo sapiens) (UniProt P43220)
- Assay: qHTS of GLP-1 Receptor Inverse Agonists (Inhibition Mode); further: nearly all actives have a fitted effect of over 55% in size
- Condition summary: HEK293 GLP-1R CRE-luciferase, luminescence, 24 h, GLP-1R form is constitutively active; series mostly up to 38.3 µM
In all, about 410,000 compounds went through this assay and about 6,400 (1.6%) were called active. Roughly 20% stayed inconclusive and do not appear here. Calls follow the shape of the dose curve; as a rule, active = well fitted inhibition curve with a large enough effect; inconclusive = small, poorly fitted or top-dose-only effect; inactive = no such curve, though single readings can be large or run the other way. The full list was thinned out, with actives kept by preference.
Respond using exactly one of the listed classes: yes (1) for active, no (0) for inactive

Incoming: Tell me the recorded outcome of this test for CCc1ccccc1NC(=O)NCCN1CCCCC1 .
Outgoing: no (0)

Incoming: Tell me the recorded outcome of this test for O=C(NN=Cc1ccccc1O)NN=Cc1ccccc1O .
Outgoing: no (0)

Incoming: Tell me the recorded outcome of this test for COc1ccc(Cl)cc1-n1c(C)cc(C(=O)OCC(=O)N2CC(=O)Nc3ccccc32)c1C .
Outgoing: yes (1)

Incoming: Tell me the recorded outcome of this test for Cc1ccc(C(=O)NCCNS(=O)(=O)c2ccccc2)cc1 .
Outgoing: no (0)

Incoming: Tell me the recorded outcome of this test for O=C(COc1ccc(S(=O)(=O)N2CCCC2)cc1[N+](=O)[O-])N1CCCCC1 .
Outgoing: no (0)

Incoming: Tell me the recorded outcome of this test for COc1ccc(C(=O)NCCCN2CCOCC2)cc1Br .
Outgoing: no (0)

Incoming: Tell me the recorded outcome of this test for COCCCNC(=O)c1ccc(-c2c(C)noc2C)c2ccoc12 .
Outgoing: no (0)

Incoming: Tell me the recorded outcome of this test for Cc1ccc(C=O)c([B-](F)(F)F)c1 .
Outgoing: no (0)

Incoming: Tell me the recorded outcome of this test for CCCOc1ccc(NC(=O)CC2C(=O)N(C)C(=S)N2Cc2ccc3c(c2)OCO3)cc1 (centres undefined) .
Outgoing: yes (1)

Incoming: Tell me the recorded outcome of this test for COc1cc(OC)c(C(=O)OCC(=O)N2CC(=O)Nc3ccccc32)cc1OC .
Outgoing: no (0)

Incoming: Tell me the recorded outcome of this test for CCn1nc(C)cc1C(=O)N1CCCC(C(=O)c2cccc(OC)c2)C1 (centres undefined) .
Outgoing: no (0)

Incoming: Tell me the recorded outcome of this test for Cc1ccc(C(=O)NC(=S)NCCN2CCOCC2)cc1 .
Outgoing: no (0)

Incoming: Tell me the recorded outcome of this test for C[C@@H]1CN([C@H](C)CO)C(=O)CCCn2cc(nn2)CO[C@H]1CN(C)S(=O)(=O)c1ccc(Oc2ccccc2)nc1 .
Outgoing: no (0)

Incoming: Tell me the recorded outcome of this test for CCNC(=O)C1CCCN(C(=O)c2ccc(OC)cc2OC)CC1 (centres undefined) .
Outgoing: no (0)

Incoming: Tell me the recorded outcome of this test for O=C(NCc1ccncc1)NC12CC3CC(CC(C3)C1)C2 .
Outgoing: no (0)

Incoming: Tell me the recorded outcome of this test for CCc1ccccc1NC(=O)c1cnn(-c2ccc(F)cc2)c1C1CCNCC1 .
Outgoing: no (0)

Incoming: Tell me the recorded outcome of this test for O=C(NCc1ccccc1)c1ccc(S(=O)(=O)Nc2cccc(C(F)(F)F)c2)cc1 .
Outgoing: yes (1)

Incoming: Tell me the recorded outcome of this test for CCCc1c(C(=O)O)cnn1-c1ccc(Cl)cc1 .
Outgoing: no (0)

Incoming: Tell me the recorded outcome of this test for COc1ccc(-n2nnnc2-c2nc3ccccc3s2)cc1 .
Outgoing: no (0)

Incoming: Tell me the recorded outcome of this test for CCCn1c(C(O)c2cc(OC)ccc2OC)nc2ccccc21 (centres undefined) .
Outgoing: no (0)

Incoming: Tell me the recorded outcome of this test for CCN1C(=O)[C@H]2[C@@H](c3ccc(C)cc3)N3C(=O)N(c4cccc(Br)c4)C(=O)[C@@]3(CC)[C@H]2C1=O .
Outgoing: no (0)

Incoming: Tell me the recorded outcome of this test for CN1c2ccc(C=O)c3c(C=O)ccc(c23)N(C)C1(C)C .
Outgoing: yes (1)

Incoming: Tell me the recorded outcome of this test for CCN(CC)C(=O)C1=C(C)N(Cc2ccc(OC)cc2)C(=O)C(CC(=O)NCc2ccco2)C1 (centres undefined) .
Outgoing: no (0)

Incoming: Tell me the recorded outcome of this test for Cn1nccc1C(=O)N1CCCC(C(=O)c2ccc(Oc3ccccc3)cc2)C1 (centres undefined) .
Outgoing: yes (1)

----------
- Measured on: Glucagon-like peptide 1 receptor (Homo sapiens) (UniProt P43220)
- Assay: qHTS of GLP-1 Receptor Inverse Agonists (Inhibition Mode); further: nearly all actives have a fitted effect of over 55% in size
- Condition summary: HEK293 GLP-1R CRE-luciferase, luminescence, 24 h, GLP-1R form is constitutively active; series mostly up to 38.3 µM
In all, about 410,000 compounds went through this assay and about 6,400 (1.6%) were called active. Inconclusive results (about 20%) are left out. Calls follow the shape of the dose curve; as a rule, active = well fitted inhibition curve with a large enough effect; inconclusive = small, poorly fitted or top-dose-only effect; inactive = no such curve, though single readings can be large or run the other way. What follows is part of a selection rich in actives, with near analogues and random picks from the rest.
Respond using exactly one of the listed classes: active, inactive

Incoming: Tell me the recorded outcome of this test for Cc1noc(C)c1NC(=O)N(C)C[C@@H]1Oc2cc(Br)ccc2S(=O)(=O)N([C@@H](C)CO)C[C@H]1C .
Outgoing: inactive

Incoming: Tell me the recorded outcome of this test for COc1ccc2sc(-c3ccc(S(C)(=O)=O)cc3)c(-c3ccc(C(N)=O)cc3)c2c1 .
Outgoing: inactive

Incoming: Tell me the recorded outcome of this test for COc1cc(C(C)=O)ccc1OC(=O)CN1C(=O)c2ccccc2C1=O .
Outgoing: inactive

Incoming: Tell me the recorded outcome of this test for COc1ccc(CN2CCC(C)(Oc3cccc(F)c3)C2)c2ccccc12 (stereo not given) .
Outgoing: active

Incoming: Tell me the recorded outcome of this test for COc1ccccc1-c1sc2ccccc2c1-c1ccc(C(C)=O)cc1 .
Outgoing: active
